# system.name: UniProt P50613
# Sequence (P50613 whole entry): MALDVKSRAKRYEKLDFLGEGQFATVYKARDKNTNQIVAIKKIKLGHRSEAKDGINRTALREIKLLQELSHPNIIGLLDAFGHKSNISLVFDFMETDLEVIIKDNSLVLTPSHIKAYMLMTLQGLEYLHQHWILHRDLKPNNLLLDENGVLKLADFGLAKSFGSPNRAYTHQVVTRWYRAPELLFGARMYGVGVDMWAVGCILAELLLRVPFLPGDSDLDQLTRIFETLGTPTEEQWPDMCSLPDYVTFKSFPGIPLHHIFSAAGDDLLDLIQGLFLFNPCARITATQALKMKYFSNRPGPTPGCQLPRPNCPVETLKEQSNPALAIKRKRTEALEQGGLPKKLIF
# measurement.description: Inhibition of human CDK7 expressed in HEK293 cells incubated for 2 hrs by NanoBRET assay
# Format: cell-based
reported.property: IC50 (µM)
Give the value in µM but do not write µM after it.

Please give the documented IC50 of CCN(CCN)c1ccc(Nc2cc(NC3CC3)n3ncc(C#N)c3n2)cc1-n1cnnc1
15.8

* * *

# system.name: Dual specificity protein kinase CLK2 (Homo sapiens, UniProt P49760)
# Sequence (P49760 whole entry): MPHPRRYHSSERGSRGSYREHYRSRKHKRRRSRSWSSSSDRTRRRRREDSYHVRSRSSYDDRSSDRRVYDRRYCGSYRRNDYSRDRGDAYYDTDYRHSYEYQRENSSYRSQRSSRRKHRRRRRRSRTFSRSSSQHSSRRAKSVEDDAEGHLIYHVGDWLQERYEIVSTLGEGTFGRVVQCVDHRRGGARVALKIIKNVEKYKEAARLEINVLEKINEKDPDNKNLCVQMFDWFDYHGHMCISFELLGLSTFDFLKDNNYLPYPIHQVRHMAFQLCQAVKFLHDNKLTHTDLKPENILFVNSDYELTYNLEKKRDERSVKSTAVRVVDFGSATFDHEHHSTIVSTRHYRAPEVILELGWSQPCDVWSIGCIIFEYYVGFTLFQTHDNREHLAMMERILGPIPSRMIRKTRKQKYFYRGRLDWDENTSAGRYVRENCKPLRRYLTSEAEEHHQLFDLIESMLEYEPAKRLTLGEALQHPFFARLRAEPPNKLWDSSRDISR
# measurement.description: Inhibition of human CLK2 expressed in HEK293 cells incubated for 2 hrs by NanoBRET assay
reported.property: pIC50
Lab note — pIC50 values are minus log10 of concentrations in M.

Please give the documented pIC50 of CCN(CCN)c1ccc(Nc2cc(NC3CC3)n3ncc(C#N)c3n2)cc1-n1cnnc1
5.50

Where these numbers come from: ChEMBL document CHEMBL5500423
